- Species on record: Mus musculus
- ASSAY_NOTES: Effect on the antagonism of pentylenetetrazole-induced clonic convulsions (P)
- Format: functional
Consider the following compounds and their measured ED50 readings.
Value expressed in mg/kg; do not type the unit.

Below are worked cases with known answers.
| STRUCTURE_AS_SMILES | ENDPOINT_LABEL | READING |
| --- | --- | --- |
| CN(C)CCCn1nc2n(c1=O)-c1ccc(Cl)cc1C(c1ccccc1Cl)=NC2 | ED50 | 6.3 |
| Oc1nnc2n1-c1ccc(Cl)cc1C(c1ccccc1)=NC2 | ED50 | 5.6 |
| CCN(CC)CCCn1nc2n(c1=O)-c1ccc(Cl)cc1C(c1ccccc1Cl)=NC2 | ED50 | 8.8 |
| CCN(CC)CCn1nc2n(c1=O)-c1ccc(Cl)cc1C(c1ccccc1Cl)=NC2 | ED50 | 0.45 |

**Query** Fill in reported ED50 for this entry: CNCCCn1nc2n(c1=O)-c1ccc(Cl)cc1C(c1ccccc1Cl)=NC2
**Result** 14.9
